Just for reference, patent US20240270698A2 is where these values come from.

Record form. Attribute: IC50. Fill in for each entry.
# system under test: human recombinant LRRK2 protein (Homo sapiens, UniProt Q5S007)
# Sequence (Q5S007 whole entry): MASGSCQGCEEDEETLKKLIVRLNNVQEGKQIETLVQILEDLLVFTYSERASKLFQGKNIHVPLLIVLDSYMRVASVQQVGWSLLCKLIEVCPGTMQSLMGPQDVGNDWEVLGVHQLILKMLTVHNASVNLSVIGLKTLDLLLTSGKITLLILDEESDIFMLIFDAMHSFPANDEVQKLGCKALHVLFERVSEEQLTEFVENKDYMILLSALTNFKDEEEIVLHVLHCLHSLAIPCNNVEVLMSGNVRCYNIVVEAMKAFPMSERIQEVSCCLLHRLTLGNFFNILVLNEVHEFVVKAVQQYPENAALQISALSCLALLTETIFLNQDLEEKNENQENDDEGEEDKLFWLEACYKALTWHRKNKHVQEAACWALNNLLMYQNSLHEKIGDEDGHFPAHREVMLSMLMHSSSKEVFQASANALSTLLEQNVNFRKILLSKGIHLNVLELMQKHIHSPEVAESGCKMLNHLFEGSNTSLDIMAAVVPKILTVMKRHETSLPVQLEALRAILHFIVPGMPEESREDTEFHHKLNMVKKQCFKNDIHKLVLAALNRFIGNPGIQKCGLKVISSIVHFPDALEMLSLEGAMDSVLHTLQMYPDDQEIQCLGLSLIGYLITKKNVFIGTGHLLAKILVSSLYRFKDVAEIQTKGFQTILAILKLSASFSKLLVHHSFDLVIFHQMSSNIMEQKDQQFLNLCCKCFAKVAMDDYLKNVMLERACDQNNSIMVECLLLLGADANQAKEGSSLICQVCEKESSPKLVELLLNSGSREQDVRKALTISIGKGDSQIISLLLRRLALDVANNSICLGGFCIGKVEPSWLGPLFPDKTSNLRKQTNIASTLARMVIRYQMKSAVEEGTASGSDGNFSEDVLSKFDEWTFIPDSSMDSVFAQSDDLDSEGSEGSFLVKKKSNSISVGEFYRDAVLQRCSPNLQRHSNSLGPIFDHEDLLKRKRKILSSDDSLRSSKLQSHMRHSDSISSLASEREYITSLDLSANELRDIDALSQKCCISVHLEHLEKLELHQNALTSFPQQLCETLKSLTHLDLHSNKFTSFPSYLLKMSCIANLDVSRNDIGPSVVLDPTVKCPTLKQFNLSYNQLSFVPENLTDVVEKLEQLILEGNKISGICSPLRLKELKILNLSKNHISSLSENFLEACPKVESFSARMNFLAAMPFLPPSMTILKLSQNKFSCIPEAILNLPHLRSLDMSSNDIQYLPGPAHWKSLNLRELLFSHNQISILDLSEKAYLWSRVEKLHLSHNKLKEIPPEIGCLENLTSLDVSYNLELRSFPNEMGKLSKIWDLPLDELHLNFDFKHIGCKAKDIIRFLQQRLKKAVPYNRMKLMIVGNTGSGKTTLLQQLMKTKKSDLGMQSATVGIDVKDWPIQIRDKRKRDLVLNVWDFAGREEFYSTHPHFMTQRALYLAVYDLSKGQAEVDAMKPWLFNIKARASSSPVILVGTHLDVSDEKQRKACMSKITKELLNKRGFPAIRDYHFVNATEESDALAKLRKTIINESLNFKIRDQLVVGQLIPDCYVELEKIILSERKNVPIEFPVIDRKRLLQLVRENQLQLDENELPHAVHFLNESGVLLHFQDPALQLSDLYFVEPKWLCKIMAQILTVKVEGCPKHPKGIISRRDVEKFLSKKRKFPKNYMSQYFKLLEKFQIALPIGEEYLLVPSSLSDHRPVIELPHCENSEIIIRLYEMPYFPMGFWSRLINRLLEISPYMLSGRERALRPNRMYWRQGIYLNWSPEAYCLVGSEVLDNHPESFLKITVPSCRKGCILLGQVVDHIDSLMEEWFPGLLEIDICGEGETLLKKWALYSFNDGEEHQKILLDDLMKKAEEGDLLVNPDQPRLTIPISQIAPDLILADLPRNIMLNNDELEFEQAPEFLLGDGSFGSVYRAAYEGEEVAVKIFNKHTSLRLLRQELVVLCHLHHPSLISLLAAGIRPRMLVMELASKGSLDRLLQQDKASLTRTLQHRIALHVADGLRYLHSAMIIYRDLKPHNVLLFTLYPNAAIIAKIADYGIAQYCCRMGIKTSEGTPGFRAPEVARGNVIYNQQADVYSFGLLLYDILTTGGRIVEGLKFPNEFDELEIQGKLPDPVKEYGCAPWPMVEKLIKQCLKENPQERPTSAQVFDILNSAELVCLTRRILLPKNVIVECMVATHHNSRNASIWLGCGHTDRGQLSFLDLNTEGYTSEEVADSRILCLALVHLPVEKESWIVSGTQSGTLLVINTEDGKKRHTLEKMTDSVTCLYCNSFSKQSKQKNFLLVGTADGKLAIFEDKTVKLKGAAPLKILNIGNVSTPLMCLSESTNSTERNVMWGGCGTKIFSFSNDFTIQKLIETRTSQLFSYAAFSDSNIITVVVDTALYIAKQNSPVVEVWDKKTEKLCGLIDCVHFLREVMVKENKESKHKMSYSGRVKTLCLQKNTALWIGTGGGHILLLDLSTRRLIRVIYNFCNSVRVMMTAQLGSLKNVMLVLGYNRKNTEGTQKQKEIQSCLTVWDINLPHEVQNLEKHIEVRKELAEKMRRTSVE
# experimental protocol: LRRK2 kinase activity assay (Eurofins, gamma-33P-ATP, filtermat scintillation counting)
# condition: human recombinant LRRK2, 40 minutes at room temperature

Consider the compound shown here: CC(C)C1c2cc(Nc3ncc(F)c(NC4CCN(S(C)(=O)=O)CC4)n3)ccc2CCN1C(=O)C(F)(F)F (stereo not shown) [compound 58] What is its recorded IC50?
0.1 to 1 µM

Consider the compound shown here: Cn1ncc2cc(Nc3ncc(Cl)c(Nc4ccccc4P(C)(C)=O)n3)cnc21 [compound 78] What is its recorded IC50?
0.001 to 0.01 µM

Consider the compound shown here: CCCn1cc(-c2n[nH]c3ccc(Nc4ncc(Cl)c(Nc5ccccc5P(C)(C)=O)n4)cc23)cn1 [compound 95] What is its recorded IC50?
0.001 to 0.01 µM

Consider the compound shown here: CP(C)(=O)c1ccccc1Nc1nc(Nc2ccc3[nH]nc(-c4ccc(Cl)c(C(F)(F)F)c4)c3c2)ncc1Cl [compound 111] What is its recorded IC50?
0.01 to 0.1 µM
